assay: The compound was tested for the ability to inactivate rat liver alcohol dehydrogenase in the presence of 1 mM NAD+K
Label scheme for Rate constant: lower than 0.07 M⁻¹ s⁻¹ is Not fulfilled, 0.07 M⁻¹ s⁻¹ and above is Fulfilled.

Sample answers from the record:
NC(=O)CCCc1ccc(NC(=O)CBr)cc1: Fulfilled
O=C(O)CCCCCCCNC(=O)CBr: Not fulfilled
O=C(O)CCCc1ccc(NC(=O)CBr)cc1: Fulfilled

QUERY: Textbook exercise: given the entry O=C(O)CCCCCCCCCCNC(=O)CBr , state whether its Rate constant is greater than or equal to 0.07 M⁻¹ s⁻¹.
RESULT: Not fulfilled

QUERY: Identify whether the reported Rate constant of the following compound is 0.07 M⁻¹ s⁻¹ or greater: O=C(O)CBr
RESULT: Not fulfilled

QUERY: API: above_or_equal(metric=Rate constant, cutoff=0.07 M⁻¹ s⁻¹) for item O=C(O)CCCCCCCCNC(=O)CBr
RESULT: Fulfilled

QUERY: Identify whether the reported Rate constant of the following compound is 0.07 M⁻¹ s⁻¹ or greater: O=C(CBr)Nc1ccc(Oc2ccc(C(=O)O)cc2)cc1
RESULT: Fulfilled

QUERY: Has O=C(CBr)Nc1ccc(-c2ccc(C(=O)O)cc2)cc1 a recorded Rate constant greater than or equal to 0.07 M⁻¹ s⁻¹?
RESULT: Fulfilled

QUERY: Given O=C(O)CCCCCCNC(=O)CBr , state whether its Rate constant is at least 0.07 M⁻¹ s⁻¹.
RESULT: Not fulfilled

QUERY: Check the entry O=C(O)CCCCCCCCCCCNC(=O)CBr : does Rate constant equal or exceed 0.07 M⁻¹ s⁻¹?
RESULT: Not fulfilled

* * *

target: Alcohol dehydrogenase (Equus caballus) (UniProt P00327+P00328); test: The compound was tested for the ability to inactivate horse liver alcohol dehydrogenase in the presence of 1 mM NAD+k
Give Rate constant for every item shown.
One number for each entry, in M⁻¹ min⁻¹.

Some solved entries appear below for comparison.
O=C(CBr)Nc1ccc(Oc2ccc(C(=O)O)cc2)cc1: 17
O=C(O)CCCCCCCCNC(=O)CBr: 4.9
O=C(O)CCCCCCNC(=O)CBr: 0.5
O=C(O)CCCc1ccc(NC(=O)CBr)cc1: 120
O=C(O)CCCCCCCNC(=O)CBr: 7.2

Count: 3. Required value per item: Rate constant.
1. NC(=O)CBr
2. O=C(O)CBr
3. O=C(O)CCCCCCCCCCNC(=O)CBr

RESULT:
0.01
0.09
3

Hey, can you go through the list below and give me Rate constant for every item?
1. O=C(CBr)Nc1ccc(-c2ccc(C(=O)O)cc2)cc1
2. O=C(O)CCCCCCCCCCCNC(=O)CBr

RESULT:
[24, 3.2]

* * *

assay: Toxic effect in mice was determined in vivo; type: toxicity, organism-based; details: mouse
READOUT LABEL: LD50

QUERY: Tell us which LD50 value is on record for CC(=O)Nc1ccc(CCCC(N)=O)cc1
RESULT: > 480 µmol/kg
